Tested on: MDA-MB-468 breast
test method notes: NCI-60 one-dose screen, 48 h (100 = growth as untreated, 0 = no growth, -100 = all killed)
condition info: 10 µM unless noted
About 83,000 compounds went through this panel and 20% of them were active in at least one assay; those are over-represented in the sample as a whole.
measured property: growth (%)
Response body: numeric value in %, unit text excluded.

Some entries whose results are on file:
| compound | growth [%] |
| --- | --- |
| S=C(S)NCCc1c[nH]c2ccccc12 | 98.6 |
| COc1ccc(C2=Nc3c(N)nc(N)nc3NC(c3cccc(Nc4ccnc5cc(C(F)(F)F)ccc45)c3)C2)cc1 (stereo not given) | 46.1 |
| Cc1cc(C)c(O)c(CNCCCCCCNCc2cc(C)cc(C)c2O)c1 | -72.2 |
| COc1ccc2[nH]c(-c3ccccc3)c(C=C(C#N)C#N)c2c1 | -4.84 |

Now consider a different compound.
Could you share what growth was measured for Fc1ccc2nc(-c3ccc(-c4noc(-c5ccc(Cl)cc5)n4)cc3)[nH]c2c1 , tested on MDA-MB-468 breast?
110
